experimentalParameters: 308.15 K; 101.33 kPa; Liquid; Vibrating tube method

sampleSmiles | measurementUnits | mass density
CCc1ccccc1 | kg/m3 | 853.607
CCCCCCCCCO | kg/m3 | 817.362
Cc1cc(C)cc(C)c1 | kg/m3 | 852.659
Cc1ccccc1C | kg/m3 | 866.507
Cc1cccc(C)c1 | kg/m3 | 851.236
Cc1ccc(C)cc1 | kg/m3 | 847.881

----------
speed of sound by entry:
experimentalParameters: 298.15 K; 101.33 kPa; Liquid; Sing-around technique in a fixed-path interferometer

molecule | speed of sound [m/s]
CCCCCCCCCO [nonan-1-ol] | 1363.1
Cc1ccc(C)cc1 [1,4-dimethylbenzene] | 1309.5
CCc1ccccc1 [ethylbenzene] | 1318.6
Cc1cccc(C)c1 [1,3-dimethylbenzene] | 1320.1
Cc1cc(C)cc(C)c1 [1,3,5-trimethylbenzene] | 1336
Cc1ccccc1C [1,2-dimethylbenzene] | 1348.2
